System: RPMI-8226
Experiment: Growth inhibition of human RPMI8226 cells after 48 hrs by sulforhodamine B assay
Assay type: functional, cell-based
Conditions: RPMI-8226, 48 h, read-out: LC50 (the source's name)

{"columns": ["smiles.text", "target.or.test.system", "CC50"],
 "data": [
  ["COc1cc(-c2nn(-c3cccc(NC(=O)Nc4cc(C(F)(F)F)cc(C(F)(F)F)c4)c3)cc2-c2ccncc2)ccc1Cl", "RPMI-8226", "> 50 µM"],
  ["COc1cc(-c2nn(-c3cccc(NC(=O)Nc4cccc(C(F)(F)F)c4)c3)cc2-c2ccncc2)ccc1Cl", "RPMI-8226", "> 50 µM"],
  ["COc1cc(-c2nn(-c3cccc(NC(=O)c4ccc(N5CCOCC5)c(C(F)(F)F)c4)c3)cc2-c2ccncc2)ccc1Cl", "RPMI-8226", "> 100 µM"],
  ["O=C(Nc1cccc(-n2cc(-c3ccncc3)c(-c3ccc(Cl)c(O)c3)n2)c1)Nc1cccc(C(F)(F)F)c1", "RPMI-8226", "> 32.5 µM"]
]}
